These data points were gathered from paper PMC12400508.

# System: Mtb mc^26230
# Test Summary: microbe, parasite or virus in culture
# Assay type: cell-based, Mycobacterium tuberculosis
# Test Parameters: Mycobacterium tuberculosis
Assay Readout: MIC (µg/mL)
Value expressed in µg/mL; do not type the unit.

1. NNC(=O)c1ccncc1 [INH, isoniazid, reference compound] | 0.039
2. Cc1ccccc1/C=C1\SC(NNC(=O)c2ccncc2)=NC1=O | 1.56
3. O=C1N=C(NNC(=O)c2ccncc2)S/C1=C\c1ccc(F)cc1 | 12.5

The record that follows has no MIC shown yet.
So the reported MIC for `O=C1N=C(NNC(=O)c2ccncc2)S/C1=C\c1ccc(Cl)cc1` , on Mtb mc^26230, turned out to be 12.5
